Quantity Measured: melting point

In [3]: df
Out[3]:
                                    compound  reported_result
 0  CC(C)(F)C1COCc2nc3c(N)nc4c(c3n21)CCCC4 (stereo unspecified)    196 to 197 °C
 1               CO/C=C(/C(=O)OC)c1ccccc1CCl      85 to 88 °C
 2  COC(=O)c1ccc(CNC(=O)c2ccc3n2Cc2ccccc2N(C(=O)COc2ccc(Cl)cc2C)C3)cc1    165 to 167 °C
 3  COc1ccc(NC(=O)c2ccc(OC)c(C34CC5CC(CC(C5)C3)C4)c2)c([N+](=O)[O-])c1    208 to 210 °C
 4              C=C(c1ccc(OC)cc1)c1sc(C)nc1C    139 to 140 °C
 5                    CNCCN1CCn2c1nc1ccccc12      60 to 63 °C
 6  OC(Cn1cncn1)c1ccc(Cl)cc1Cl (stereo unspecified)            87 °C
 7                    CSc1cccc(S(N)(=O)=O)c1    126 to 127 °C
 8  COc1ccc(COc2c(C)c(C)c3c(c2C)C(c2ccc(N4CCN(C)CC4)cc2)C(C)(C)O3)cc1 (stereo unspecified)    121 to 122 °C
 9                COC(=O)Cc1ccc2cc(OC)ncc2c1    49.5 to 51 °C
10  O=C1NC(=O)C(c2ccc(-c3ccccc3)cc2)(N2CCN(c3ccc(N4C(=O)CCC4=O)cc3)CC2)C(=O)N1    310 to 311 °C

* * *

Reported values of melting point for individual entries
Quantity Measured: melting point

                                    compound  reported_result
 0   CNC(=O)N(O)CCCNC(=O)c1cccc(Oc2ccccc2)c1    175 to 177 °C
 1  CCCC(=O)NC(C)c1nnc(C)[nH]c1=O (stereo unspecified)    235 to 237 °C
 2  CCc1cc2c(cc1O)CCC1C2CCC2(C)C(=CCOC)CCC12 (stereo unspecified)    133 to 134 °C
 3                    ClCc1coc(-c2sccc2Cl)n1      84 to 85 °C
 4  Cc1cc2ccccc2nc1Sc1ccc2c(c1)CC[C@H]1N(C)C(=O)CC[C@]21C    185 to 193 °C
 5  CC(=O)Nc1cc(Oc2c(Cl)cc(-n3ncc(=O)[nH]c3=O)cc2Cl)ccc1O    101 to 109 °C
 6         CCCCN(C=O)C1CC(C)(C)N(O)C(C)(C)C1      77 to 79 °C
 7  CCc1nc(=O)c(CCC(=O)O)c(C)n1Cc1ccc(-c2ccccc2-c2nnn[nH]2)cc1    317 to 322 °C
 8             Clc1cc(N2CCCC2)nc(N2CCNCC2)n1      77 to 92 °C
 9             O=P(O)(O)C1(P(=O)(O)O)CCCCCN1           275 °C
10  CC1CC(=O)N(CCCCN2CCN(c3cncc(Cl)n3)CC2)S(=O)(=O)N1 (stereo unspecified)    107 to 109 °C
11  CC(=O)Nc1ccc(SC(CCc2ccc(Cl)cc2)Cn2ccnc2)cc1 (stereo unspecified)           166 °C
12   N=C(N)Nc1nc(CSCCNC(N)=N[N+](=O)[O-])ns1    184 to 186 °C
13      Cc1ccc(-c2nn3cccnc3c2CC(=O)N(C)C)cc1    164 to 165 °C
14  O=C1CCC(N2Cc3cc(CNC(=O)Nc4cccc5ccccc45)ccc3C2=O)C(=O)N1 (stereo unspecified)    250 to 252 °C
15  Nc1ncc(-c2cccc(Nc3ccc(-c4ccoc4)cc3[N+](=O)[O-])c2)cn1    185 to 186 °C
16  Cc1nc(Cl)c2c(C)c(C)n(-c3c(Br)cc(C(F)(F)F)cc3Br)c2n1    202 to 204 °C
17                Nc1cc(-c2ccccc2)cc2ccccc12           103 °C
18              COc1ccc2c(n1)NC(C)(C)C(=O)N2    194 to 195 °C
19  Cc1c(-c2ccc(OCC3CC3)cc2)nc2n(Cc3c(F)cccc3F)cc(-c3ccccc3)c(=O)n12    210 to 214 °C
20  COc1cn(-c2ccc(-n3cc(F)c(F)c3)cc2OC(F)F)nc(-c2ccnn2-c2ccccc2)c1=O    168 to 170 °C
21  CC(C)(C)OC(=O)c1cccc(-c2nc(=O)c3ccccc3s2)n1    185 to 186 °C
22  CC(C)(C)C(=O)C(F)n1cncn1 (stereo unspecified)      54 to 55 °C
23  Cc1c(F)c(=O)n(-c2cc(OC(C)C)c(Cl)cc2F)c(=O)n1C    139 to 141 °C
24  O=C(C=NNc1cc(Oc2ncccn2)c(Cl)cc1F)C(F)(F)F    188 to 190 °C
25  COCCOc1cc(Oc2ccc(C(F)(F)F)cn2)ccc1CCCOc1cc(CCC(=O)O)n(-c2ccccc2)n1      83 to 85 °C
26  COC1C(O)C(CO)OC1n1cc(C(F)(F)F)c(=O)[nH]c1=O (stereo unspecified)    192 to 194 °C
27                   Cc1c(-c2ncncc2Cl)ssc1=S           100 °C
28  Cc1cnc2cccc(Oc3cc(-c4ccc(C(F)(F)F)cc4)ncn3)c2n1    139 to 141 °C
29  COc1cccc(-c2cnn3c(-c4cccc(NC(=O)CC(C)C)c4)ccnc23)c1    153 to 154 °C
30  CS(=O)(=O)c1ccc(-n2nc(C(F)(F)F)cc2-c2ccc(F)cc2)cc1    127 to 129 °C
31  CC(=O)OCC(=O)C1=CCC2C3CCC4=CC(=O)C=CC4(C)C34OC4CC12C (stereo unspecified)    164 to 165 °C
32           COc1cc(Cc2cnc(N)nc2N)cc(OC)c1CN    176 to 178 °C
33  CC(C)c1cccc(S(=O)(=O)n2c(CCCC(=O)O)cc3cc(C(F)(F)F)ccc32)c1           160 °C
34  CC(C)(CC(=O)Oc1ccccc1C(C)(C)C)NS(=O)(=O)C(F)(F)F      69 to 71 °C
35  CONC(=O)c1cc(OC)cc(Oc2cccc(C(F)(F)F)c2)n1      91 to 92 °C
36        CN1CCN(c2ccc([N+](=O)[O-])cc2F)CC1      68 to 70 °C
37  CCOc1nn(-c2ccc(C(F)(F)F)cn2)cc1CCOc1ccc(CCC(=O)O)c(C)c1    117 to 119 °C
38  CO[C@H]1CC[C@H]([C@H]2CC[C@H](CCC=O)CC2)CC1            36 °C
39  CN1CC[C@@H](c2c(O)cc(O)c3c(=O)cc(-c4cc(O)ccc4Cl)oc23)[C@@H]1CO    220 to 221 °C
40  CN1CC[C@@]2(c3cccc(O)c3)C[C@@H](N=[N+]=[N-])CC[C@H]2C1 (racemic)    139 to 140 °C

* * *

List of melting point values.
Quantity Measured: melting point

                                   compound  quantity_measured  reported_result
0          N#Cc1cccc(-c2nc(-c3ccccn3)no2)c1      melting point    148 to 149 °C
1  COc1cc2cn(N3C(C)CCCC3C)nc2cc1OC (stereo not given)      melting point    162 to 163 °C
2             CNC(=O)Nc1cccc(C(=S)NC(C)C)c1      melting point    175 to 178 °C
3  O=C(NCC(=O)N(CC(=O)N1CCCCC1c1ccccc1)c1ccccc1)Nc1cccc(CO)c1 (racemic)      melting point           104 °C
4   CCN(CC)CCOc1ccc([N+](=O)[O-])cc1NC(C)=O      melting point           117 °C
5  COc1ccc(/C=C(\C#N)c2ccc(Br)cc2)cc1OC1CCCC1      melting point    116 to 119 °C
6  COC(=O)c1ccc(C)c(NC(=O)c2cccc([N+](=O)[O-])c2)c1      melting point    208 to 209 °C
7    CCOC(=O)Cc1nc(-c2ccccc2)c(-c2ccccc2)o1      melting point      71 to 72 °C
8  COCn1ncc2cc(Cl)c(NC(=O)c3cc(C(F)(F)F)nn3-c3ncccc3Cl)c(C(=O)NC(C)C)c21      melting point    180 to 182 °C
9  Cc1nc(-c2ccc3c(c2)COC(N[C@@H]2CCc4ccccc42)=N3)no1      melting point           138 °C

Where do the numbers come from? From a melting point compilation (Tetko et al.; mined from patent text by program, amines drawn as free bases though some values may be those of a salt).
